# Tested on: PC3mm2 (androgen receptor insensitive prostate cancer)
# assaySummary: Anti-proliferative activity against PC3mm2 cells
# Assay type: cell-based
# measurementConditions: Table 2; read-out: Anti-Proliferation Activities of non-Noviosylated Olefin Dimers, PC3mm2
pIC50: −log10 of the molar value.
reportedMetric: pIC50

[
  {
    "sampleSmiles": "COc1cc2cc(NC(=O)CCC/C=C/CCCC(=O)Nc3cc4cc(OC)c(OC5CCN(C)CC5)c(C)c4oc3=O)c(=O)oc2c(C)c1OC1CCN(C)CC1",
    "assaySystem": "PC3mm2 (androgen receptor insensitive prostate cancer)",
    "pIC50": 6.42
  }
]

(P) Cc1c(OC2CCN(C)CC2)ccc2cc(NC(=O)CCC/C=C/CCCC(=O)Nc3cc4ccc(OC5CCN(C)CC5)c(C)c4oc3=O)c(=O)oc12
(Q) COc1cc2cc(NC(=O)C/C=C/CC(=O)Nc3cc4cc(OC)c(OC5CCN(C)CC5)c(C)c4oc3=O)c(=O)oc2c(C)c1OC1CCN(C)CC1
## Task Lower value for measured pIC50? Options: P , Q Answer with the label corresponding to your selection.
## Result P

(a) Cc1c(OC2CCN(C)CC2)ccc2cc(NC(=O)CC/C=C/CCC(=O)Nc3cc4ccc(OC5CCN(C)CC5)c(C)c4oc3=O)c(=O)oc12
(b) COc1c(OC2CCN(C)CC2)ccc2cc(NC(=O)CC/C=C/CCC(=O)Nc3cc4ccc(OC5CCN(C)CC5)c(OC)c4oc3=O)c(=O)oc12
## Task Which has the higher pIC50, a or b ? Answer with the label corresponding to your selection.
## Result b
(b: 7.22, a: 5.38)

* * *

# System: MCF-7 (estrogen receptor positive breast cancer cells)
# assaySummary: Anti-proliferative activity against MCF-7 cells
# Assay type: cell-based
# measurementConditions: Table 5; mean ± SD; read-out: Anti-Proliferation Activities Non-Noviosylated Biaryl Dimers, MCF-7
reportedMetric: IC50 (µM)

[
  {
    "molecule": "COc1ccc(C(=O)Nc2cc3ccc(OCCCN(C)C)c(C)c3oc2=O)cc1-c1cc(C(=O)Nc2cc3ccc(OCCCN(C)C)c(C)c3oc2=O)ccc1OC [Compound 72]",
    "IC50 [µM]": 11.7
  },
  {
    "molecule": "COc1ccc(C(=O)Nc2cc3ccc(OC4CCN(C)CC4)c(C)c3oc2=O)cc1-c1cc(C(=O)Nc2cc3ccc(OC4CCN(C)CC4)c(C)c3oc2=O)ccc1OC [Compound 71]",
    "IC50 [µM]": 14.2
  }
]

* * *

# Tested on: HT29 (Human colon adenocarcinoma grade II)
# assaySummary: Anti-proliferative activity against HT29 cells
# Type: cell-based
# measurementConditions: Table 4; read-out: Anti-Proliferation Activities of Biaryl Dimers, HT29
# Method: Once synthesized, the library of coumermycin A1 analogs containing the olefinic and saturated linkers, were evaluated for anti-proliferative activity against SKBr3 (estrogen receptor negative, Her2 over-expressing breast cancer cells), MCF-7 (estrogen receptor positive breast cancer cells), A549 (human lung adenocarcinoma epithelial), HT29 (Human colon adenocarcinoma grade II), and PC3mm2 (androgen receptor insensitive prostate cancer) cell lines. […]
reportedMetric: IC50 (µM)

(P) COc1ccc(C(=O)Nc2cc3ccc(OC4OC(C)(C)C(OC)C(O)C4O)c(C)c3oc2=O)cc1-c1cc(C(=O)Nc2cc3ccc(OC4OC(C)(C)C(OC)C(O)C4O)c(C)c3oc2=O)ccc1OC (stereo not drawn)
(Q) COc1cc(C(=O)Nc2cc3ccc(OC4OC(C)(C)C(OC)C(O)C4O)c(C)c3oc2=O)cc(-c2cc(OC)cc(C(=O)Nc3cc4ccc(OC5OC(C)(C)C(OC)C(O)C5O)c(C)c4oc3=O)c2)c1 (stereo not drawn)
(R) COc1ccc(C(=O)Nc2cc3ccc(OC4OC(C)(C)C(OC)C(O)C4O)c(OC)c3oc2=O)cc1-c1cc(C(=O)Nc2cc3ccc(OC4OC(C)(C)C(OC)C(O)C4O)c(OC)c3oc2=O)ccc1OC (stereo not drawn)
## Task Place the items in sequence of falling IC50. Please express your ranking as an ordered list of the labels.
## Result P, Q, R
(P: 36.5 µM, Q: 11.7 µM, R: 0.27 µM)

* * *

# Tested on: MCF-7 (estrogen receptor positive breast cancer cells)
# assaySummary: Anti-proliferative activity against MCF-7 cells
# Assay type: cell-based
# measurementConditions: Table 2; mean ± SD; read-out: Anti-Proliferation Activities of non-Noviosylated Olefin Dimers, MCF7
pIC50: −log10 of the molar value.
reportedMetric: pIC50

[
  {
    "sampleSmiles": "Cc1c(OC2CCN(C)CC2)ccc2cc(NC(=O)CC/C=C/CCC(=O)Nc3cc4ccc(OC5CCN(C)CC5)c(C)c4oc3=O)c(=O)oc12",
    "reportedMetric": "pIC50",
    "testValue": 6.57
  }
]

(1) Cc1c(OC2CCN(C)CC2)ccc2cc(NC(=O)CCC/C=C/CCCC(=O)Nc3cc4ccc(OC5CCN(C)CC5)c(C)c4oc3=O)c(=O)oc12
(2) Cc1c(OC2CCN(C)CC2)ccc2cc(NC(=O)CC/C=C\CCC(=O)Nc3cc4ccc(OC5CCN(C)CC5)c(C)c4oc3=O)c(=O)oc12
## Task Lower value for measured pIC50? Options: 1 , 2 Answer with the label corresponding to your selection.
## Result 2

* * *

# Tested on: HT29 (Human colon adenocarcinoma grade II)
# assaySummary: Anti-proliferative activity against HT29 cells
# Assay type: cell-based
# measurementConditions: Table 3; read-out: Anti-Proliferation Activities of Saturated Linker Dimers, HT29
pIC50: −log10 of the molar value.
reportedMetric: pIC50

(I) Cc1c(OC2CCN(C)CC2)ccc2cc(NC(=O)CCCCCCC(=O)Nc3cc4ccc(OC5CCN(C)CC5)c(C)c4oc3=O)c(=O)oc12 [Compound 43]
(II) Cc1c(OC2CCN(C)CC2)ccc2cc(NC(=O)CCCCCCCCC(=O)Nc3cc4ccc(OC5CCN(C)CC5)c(C)c4oc3=O)c(=O)oc12 [Compound 44]
## Task Lower value for measured pIC50? Options: I , II Answer with the label corresponding to your selection.
## Result I

* * *

# Tested on: MCF-7 (estrogen receptor positive breast cancer cells)
# assaySummary: Anti-proliferative activity against MCF-7 cells
# Type: cell-based
# measurementConditions: Table 2; mean ± SD; read-out: Anti-Proliferation Activities of non-Noviosylated Olefin Dimers, MCF7
pIC50: −log10 of the molar value.
reportedMetric: pIC50

Use these answered entries as a reference point.
[
  {
    "sampleSmiles": "Cc1c(OCCCN(C)C)ccc2cc(NC(=O)C/C=C/CC(=O)Nc3cc4ccc(OCCCN(C)C)c(C)c4oc3=O)c(=O)oc12",
    "pIC50": 6.08
  },
  {
    "sampleSmiles": "COc1c(OC2CCN(C)CC2)ccc2cc(NC(=O)CC/C=C/CCC(=O)Nc3cc4ccc(OC5CCN(C)CC5)c(OC)c4oc3=O)c(=O)oc12",
    "pIC50": 5.95
  },
  {
    "sampleSmiles": "Cc1c(OC2CCN(C)CC2)ccc2cc(NC(=O)C/C=C/CC(=O)Nc3cc4ccc(OC5CCN(C)CC5)c(C)c4oc3=O)c(=O)oc12",
    "pIC50": 6.54
  },
  {
    "sampleSmiles": "COc1cc2cc(NC(=O)CC/C=C/CCC(=O)Nc3cc4cc(OC)c(OC5CCN(C)CC5)c(C)c4oc3=O)c(=O)oc2c(C)c1OC1CCN(C)CC1",
    "pIC50": 5.88
  }
]

(I) COc1c(OC2CCN(C)CC2)ccc2cc(NC(=O)CCC/C=C/CCCC(=O)Nc3cc4ccc(OC5CCN(C)CC5)c(OC)c4oc3=O)c(=O)oc12
(II) COc1cc2cc(NC(=O)CCC/C=C/CCCC(=O)Nc3cc4cc(OC)c(OC5CCN(C)CC5)c(C)c4oc3=O)c(=O)oc2c(C)c1OC1CCN(C)CC1
## Task Which has the higher pIC50, I or II ? Answer with the label corresponding to your selection.
## Result II

* * *

# System: PC3mm2 (androgen receptor insensitive prostate cancer)
# assaySummary: Anti-proliferative activity against PC3mm2 cells
# Type: cell-based
# measurementConditions: Table 2; read-out: Anti-Proliferation Activities of non-Noviosylated Olefin Dimers, PC3mm2
reportedMetric: IC50 (µM)

Use these answered entries as a reference point.
[
  {
    "sampleSmiles": "Cc1c(OC2CCN(C)CC2)ccc2cc(NC(=O)C/C=C/CC(=O)Nc3cc4ccc(OC5CCN(C)CC5)c(C)c4oc3=O)c(=O)oc12",
    "reportedMetric": "IC50",
    "testValue": 7.51
  },
  {
    "sampleSmiles": "COc1c(OC2CCN(C)CC2)ccc2cc(NC(=O)C/C=C/CC(=O)Nc3cc4ccc(OC5CCN(C)CC5)c(OC)c4oc3=O)c(=O)oc12",
    "reportedMetric": "IC50",
    "testValue": 8.63
  }
]

(A) Cc1c(OCCCN(C)C)ccc2cc(NC(=O)C/C=C/CC(=O)Nc3cc4ccc(OCCCN(C)C)c(C)c4oc3=O)c(=O)oc12
(B) Cc1c(OC2CCN(C)CC2)ccc2cc(NC(=O)CC/C=C\CCC(=O)Nc3cc4ccc(OC5CCN(C)CC5)c(C)c4oc3=O)c(=O)oc12
## Task Lower value for measured IC50? Options: A , B Answer with the label corresponding to your selection.
## Result A
